# ACE inhibition annotations
biological target: UniProtKB P47820; assay: Inhibition of Angiotensin I converting enzyme(ACE) at the dose of 100 mg/kg (ip) in rat; type: organism-based; set-up: dose 100 mg/kg
Sequence (P47820 whole entry): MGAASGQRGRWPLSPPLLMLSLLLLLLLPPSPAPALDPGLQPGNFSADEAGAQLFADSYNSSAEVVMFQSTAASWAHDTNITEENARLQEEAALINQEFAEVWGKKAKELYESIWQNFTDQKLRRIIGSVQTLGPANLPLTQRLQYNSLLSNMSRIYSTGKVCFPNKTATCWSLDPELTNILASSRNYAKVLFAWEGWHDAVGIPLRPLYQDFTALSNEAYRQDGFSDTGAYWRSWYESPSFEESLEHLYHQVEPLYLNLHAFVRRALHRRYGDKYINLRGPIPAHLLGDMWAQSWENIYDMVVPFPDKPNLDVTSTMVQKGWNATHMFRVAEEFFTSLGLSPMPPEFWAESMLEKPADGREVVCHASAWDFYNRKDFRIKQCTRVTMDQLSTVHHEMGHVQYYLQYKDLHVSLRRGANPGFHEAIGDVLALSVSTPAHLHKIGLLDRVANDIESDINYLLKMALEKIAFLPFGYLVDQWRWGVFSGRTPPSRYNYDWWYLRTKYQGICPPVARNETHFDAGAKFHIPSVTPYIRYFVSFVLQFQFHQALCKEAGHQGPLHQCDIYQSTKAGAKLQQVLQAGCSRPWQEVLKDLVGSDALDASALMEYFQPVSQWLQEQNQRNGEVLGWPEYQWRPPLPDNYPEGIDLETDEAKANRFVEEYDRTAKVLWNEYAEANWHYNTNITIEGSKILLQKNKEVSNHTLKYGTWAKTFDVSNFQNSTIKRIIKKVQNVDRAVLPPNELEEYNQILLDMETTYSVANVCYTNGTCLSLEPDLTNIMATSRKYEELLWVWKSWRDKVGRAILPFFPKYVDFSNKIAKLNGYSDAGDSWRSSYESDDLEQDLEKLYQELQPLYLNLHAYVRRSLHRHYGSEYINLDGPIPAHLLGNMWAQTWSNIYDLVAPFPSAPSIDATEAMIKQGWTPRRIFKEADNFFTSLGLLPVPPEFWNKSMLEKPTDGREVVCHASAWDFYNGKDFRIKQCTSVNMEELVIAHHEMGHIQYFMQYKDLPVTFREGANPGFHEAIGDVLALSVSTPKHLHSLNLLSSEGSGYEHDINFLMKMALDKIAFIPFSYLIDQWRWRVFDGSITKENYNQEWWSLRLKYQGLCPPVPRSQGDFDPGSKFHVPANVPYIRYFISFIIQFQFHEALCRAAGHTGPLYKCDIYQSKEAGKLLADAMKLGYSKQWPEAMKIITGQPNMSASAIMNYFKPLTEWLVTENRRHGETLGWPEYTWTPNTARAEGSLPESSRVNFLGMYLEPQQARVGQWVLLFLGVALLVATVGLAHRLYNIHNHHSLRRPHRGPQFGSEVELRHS
Assay metric: ACE inhibition

- Molecule: "Cl.NS(=O)(=O)c1cc(C(=O)NCCCC[C@H](N[C@@H](CCc2ccccc2)C(=O)O)C(=O)N2CCC[C@H]2C(=O)O)ccc1Cl"
  Assay metric: "ACE inhibition"
  Observed measurement: "100%"
- Molecule: "CCOC(=O)[C@H](CCc1ccccc1)N[C@@H](C)C(=O)N(CC(=O)O)Cc1cc(C(C)(C)C)cc(I)c1O"
  Assay metric: "ACE inhibition"
  Observed measurement: "80%"
- Molecule: "C[C@H](N[C@@H](CCc1ccccc1)C(=O)O)C(=O)N(CC(=O)O)CC1Nc2cc(Cl)c(S(N)(=O)=O)cc2S(=O)(=O)N1 (some centres undefined)"
  Assay metric: "ACE inhibition"
  Observed measurement: "100%"
- Molecule: "C[C@H](N[C@@H](CCc1ccccc1)C(=O)O)C(=O)N(CC(=O)O)CC(=O)Nc1cc(C(=O)O)cc(S(N)(=O)=O)c1Cl.Cl"
  Assay metric: "ACE inhibition"
  Observed measurement: "80%"
- Molecule: "Cl.NCCCC[C@H](N[C@@H](CCc1ccccc1)C(=O)O)C(=O)N(CC(=O)O)CC1Nc2cc(Cl)c(S(N)(=O)=O)cc2S(=O)(=O)N1 (some centres undefined)"
  Assay metric: "ACE inhibition"
  Observed measurement: "100%"
- Molecule: "CCOC(=O)c1cc(S(N)(=O)=O)c(Cl)cc1NCCCC[C@H](C(=O)O)N(Cc1ccccc1)C(=O)[C@H](C)N[C@@H](CCc1ccccc1)C(=O)OCC.Cl"
  Assay metric: "ACE inhibition"
  Observed measurement: "100%"
- Molecule: "C[C@H](N[C@@H](CCc1ccccc1)C(=O)O)C(=O)N(CCCC1Nc2cc(Cl)c(S(N)(=O)=O)cc2S(=O)(=O)N1)CC(=O)O.Cl (some centres undefined)"
  Assay metric: "ACE inhibition"
  Observed measurement: "100%"
- Molecule: "CCOC(=O)[C@H](CCc1ccccc1)N[C@@H](CCCCNC(=O)c1ccc(Cl)c(S(N)(=O)=O)c1)C(=O)N1CCC[C@H]1C(=O)O.Cl"
  Assay metric: "ACE inhibition"
  Observed measurement: "80%"
- Molecule: "CCOC(=O)C(CCc1ccccc1)N[C@@H](C)C(=O)N(C1Cc2ccccc2C1)[C@H](CCCCNC(=O)c1ccc(Cl)c(S(N)(=O)=O)c1)C(=O)O.Cl (some centres undefined)"
  Assay metric: "ACE inhibition"
  Observed measurement: "50%"

---

organism: Rattus norvegicus; assay: Duration of action on ACE in rat; format: functional
Assay metric: Duration

- Molecule: "C[C@H](N[C@@H](CCc1ccccc1)C(=O)O)C(=O)N(CCCC1Nc2cc(Cl)c(S(N)(=O)=O)cc2S(=O)(=O)N1)CC(=O)O.Cl (stereo partly drawn)"
  Observed measurement: "> 3 h"
- Molecule: "C[C@H](N[C@@H](CCc1ccccc1)C(=O)O)C(=O)N(Cc1ccccc1)[C@H](CCCCNc1cc(Cl)c(C(=O)O)cc1S(N)(=O)=O)C(=O)O.Cl"
  Observed measurement: "0 h"
- Molecule: "CCOC(=O)[C@H](CCc1ccccc1)N[C@@H](C)C(=O)N(CC(=O)O)N(C)CC1Nc2cc(Cl)c(S(N)(=O)=O)cc2S(=O)(=O)N1.Cl (stereo partly drawn)"
  Observed measurement: "<1 h"
